Test: Pharmacoscintigraphy regional absorption biostudy with Enterion site-specific delivery capsule, topiramate plasma concentrations
Format: in vivo, human
Details: human, plasma, other: Enterion capsule, delivered to the colon, 200 mg, Trt D, 200 mg, colon; read-out: tmax
endpoint: tmax

# compound, observed
data = [
    ("CC1(C)O[C@@H]2[C@@H](CO[C@@]3(COS(N)(=O)=O)OC(C)(C)O[C@@H]23)O1 [Topiramate, topiramate]", "11.8 h"),
]

====

Experiment: Pharmacoscintigraphy regional absorption biostudy with Enterion site-specific delivery capsule, topiramate plasma concentrations
Format: in vivo, human
Conditions: human, plasma, other: Enterion capsule, delivered to the colon, 200 mg, Trt D, 200 mg, colon; plasma

# compound, AUC(0-inf)
data = [
    ("CC1(C)O[C@@H]2[C@@H](CO[C@@]3(COS(N)(=O)=O)OC(C)(C)O[C@@H]23)O1 [Topiramate, topiramate]", "181 µg·h/mL"),
]

====

Test: Pharmacoscintigraphy regional absorption biostudy with Enterion site-specific delivery capsule, topiramate plasma concentrations
Assay type: in vivo, human
Details: human, plasma, 200 mg, Trt C, 200 mg, distal small bowel (DSB); plasma; read-out: Cmax
Experimental: A rational approach to obtain detailed information about how well topiramate is absorbed from the key residence areas of the gastrointestinal tract was conducted using the Enterion® site-specific delivery capsule, which is the subject of U.S. Pat. No. 6,632,216 which is incorporated herein by reference. […] Analysis of plasma samples for topiramate was carried out in accordance with Bioanalytical Services Test Method number TM154. […] Topiramate is analysed using LC-MS/MS. […]

# compound, Cmax (ng/mL)
measured = [
    ("CC1(C)O[C@@H]2[C@@H](CO[C@@]3(COS(N)(=O)=O)OC(C)(C)O[C@@H]23)O1 [Topiramate, topiramate]", 4970),
]

====

Assay: Pharmacoscintigraphy regional absorption biostudy with Enterion site-specific delivery capsule, topiramate plasma concentrations
Assay type: in vivo, human
Details: human, plasma, 200 mg, Trt B, proximal small bowel (PSB)
endpoint: AUC(0-inf) (µg·h/mL)

# compound, unit-descriptor, observed
rows = [
    ("CC1(C)O[C@@H]2[C@@H](CO[C@@]3(COS(N)(=O)=O)OC(C)(C)O[C@@H]23)O1 [Topiramate, topiramate]", "µg·h/mL", 192),
]

====

Experiment: Pharmacoscintigraphy regional absorption biostudy with Enterion site-specific delivery capsule, topiramate plasma concentrations
Type: in vivo, human
Conditions: human, plasma, other: Enterion capsule, delivered to the colon, 200 mg, Trt D, 200 mg, colon; plasma; read-out: Cmax
endpoint: Cmax (ng/mL)

# molecule, observed
rows = [
    ("CC1(C)O[C@@H]2[C@@H](CO[C@@]3(COS(N)(=O)=O)OC(C)(C)O[C@@H]23)O1 [Topiramate, topiramate]", 3880),
]

====

Test: Pharmacoscintigraphy regional absorption biostudy with Enterion site-specific delivery capsule, topiramate plasma concentrations
Format: in vivo, human
Settings: human, plasma, other: Enterion capsule, delivered to the colon, 200 mg, Trt D, 200 mg, colon; read-out: t½ (converted)

# molecule, half-life / h
data = [
    ("CC1(C)O[C@@H]2[C@@H](CO[C@@]3(COS(N)(=O)=O)OC(C)(C)O[C@@H]23)O1 [Topiramate, topiramate]", 24.9),
]

====

Experiment: Pharmacoscintigraphy regional absorption biostudy with Enterion site-specific delivery capsule, topiramate plasma concentrations
Type: in vivo, human
Details: human, plasma, 200 mg, Trt C, 200 mg, distal small bowel (DSB); read-out: tmax
Protocol: A rational approach to obtain detailed information about how well topiramate is absorbed from the key residence areas of the gastrointestinal tract was conducted using the Enterion® site-specific delivery capsule, which is the subject of U.S. Pat. No. 6,632,216 which is incorporated herein by reference. […] Analysis of plasma samples for topiramate was carried out in accordance with Bioanalytical Services Test Method number TM154. […] Topiramate is analysed using LC-MS/MS. […]

# compound, unit-descriptor, tmax
records = [
    ("CC1(C)O[C@@H]2[C@@H](CO[C@@]3(COS(N)(=O)=O)OC(C)(C)O[C@@H]23)O1 [Topiramate, topiramate]", "h", 3.6),
]

====

Experiment: Pharmacoscintigraphy regional absorption biostudy with Enterion site-specific delivery capsule, topiramate plasma concentrations
Format: in vivo, human
Conditions: human, plasma, 200 mg, Trt B, 200 mg, proximal small bowel (PSB); read-out: tmax

# compound, tmax [h]
records = [
    ("CC1(C)O[C@@H]2[C@@H](CO[C@@]3(COS(N)(=O)=O)OC(C)(C)O[C@@H]23)O1 [Topiramate, topiramate]", 2.1),
]

====

Assay: Pharmacoscintigraphy regional absorption biostudy with Enterion site-specific delivery capsule, topiramate plasma concentrations
Type: in vivo, human
Conditions: human, plasma, 200 mg, Trt B, 200 mg, proximal small bowel (PSB); plasma; read-out: Cmax

# compound, Cmax / ng/mL
measured = [
    ("CC1(C)O[C@@H]2[C@@H](CO[C@@]3(COS(N)(=O)=O)OC(C)(C)O[C@@H]23)O1 [Topiramate, topiramate]", 5260),
]

====

Test: Pharmacoscintigraphy regional absorption biostudy with Enterion site-specific delivery capsule, topiramate plasma concentrations
Assay type: in vivo, human
Conditions: human, plasma, 200 mg, Trt B, proximal small bowel (PSB)

# compound, unit-descriptor, AUC(0-t)
measured = [
    ("CC1(C)O[C@@H]2[C@@H](CO[C@@]3(COS(N)(=O)=O)OC(C)(C)O[C@@H]23)O1 [Topiramate, topiramate]", "µg·h/mL", 150),
]
